Test system: HPPD polypeptides (wild-type SEQ ID NO:1 and mutants)
conditionDetails: in the presence of mesotrione (MST), 60 μM inhibitor, high substrate concentration; total change in signal normalized to no inhibitor
observedProperty: Residual turnover (%)
Value expressed in %; do not type the unit.

1. 16 (protein, mutant HPPD polypeptide) MADLYENPMGLMGFEFIEFASPTPGTLEPIFEIMGFTKVATHRSKNVHLYRQGEINLILNNEPNSIASYFAAEHGPSVCGMAFRVKDSQKAYNRALELGAQPIHIDTGPMELNLPAIKGIGGAPLYLIDRFGEGSSIYDIDFVYLEGVERNPVGAGLKVIDHLTHNVYRGRMVYWANFYEKLFNFREARYFDIKGEYTGLTSKAMSAPDGMIRIPLNEESSKGAGQIEEFLMQFNGEGIQHVAFLTDDLVKTWDALKKIGMRFMTAPSDSYYEMLEGRLPDHGEPVDQLQARGILLDGSSVEGDKRLLLQIFSETLMGPVFFEFIQRKGDDGFGPDSFKVLFESKERDQVRRGVLTAD
92

Here's the next entry for you.
Give its Residual turnover value. Item: 17 (protein, mutant HPPD polypeptide) MADLYENPMGLMGFEFIEFASPTPGTLEPIFEIMGFTKVATHRSKNVHLYRQGEINLILNNEPNSIASYFAAEHGPSVCGMAFRVKDSQKAYNRALELGAQPIHIDTGPMELNLPAIKGIGGAPLYLIDRFGEGSSIYDIDFVYLEGVERNPVGAGLKVIDHLTHNVYRGRMVYWANFYEKLFNFREARYFDIKGEYTGLTSKAMSAPDGMIRIPLNEESSKGAGQIEEFLMQFNGEGIQHVAFLTDDLVKTWDALKKIGMRFMTAPGDEYYEMLEGRLPDHGEPVDQLQARGILLDGSSVEGDKRLLLQIFSETLMGPVFFEFIQRKGDDGFGPDSFKVLFESVERDQVRRGVLTAD
90
